Would you mind telling me the reported IC50 of each entry?
# subjectOfTest: HIV-1 PR (Human immunodeficiency virus type 1 group M subtype B)
# assayDetails: HIV-protease inhibitory activity assay (FRET peptide substrate)
# testContext: Test Example 1
Your answer is read as nM, so omit the unit and give the number.

Q: So what does the record say about IC50 for COc1ccc(S(=O)(=O)N(CC(C)C)C[C@@H](O)[C@H](Cc2ccc(OCc3ccccc3-c3sc4c(c3C(=O)O)CC(C)(C)CC4)cc2)NC(=O)OC2CO[C@H]3OC[C@H](OC)[C@@H]23)cc1 (stereo partly drawn) [Compound I-907] ?
Result: 1.27

Q: // same read-out, input: COc1ccc(S(=O)(=O)N(CC(C)C)CC(O)C(Cc2ccc(OC3CCC(c4sc5c(c4C(=O)O)CC(C)(C)CC5)CC3)cc2)NC(=O)OC2COC3(C)OCCC23)cc1 (stereo not drawn) [Compound I-203]
Result: 5.02

Q: Next entry: COc1ccc(S(=O)(=O)N(CC(C)C)CC(O)C(Cc2ccc(NC3CCN(c4ccccc4-c4sc5c(c4C(=O)O)CC(C)(C)CC5)C3)cc2)NC(=O)OC2COC3(C)OCCC23)cc1 (stereo not drawn) [Compound I-238]
Result: 2.52
